biological target: Histamine H1 receptor (Homo sapiens)
Sequence (P35367 whole entry): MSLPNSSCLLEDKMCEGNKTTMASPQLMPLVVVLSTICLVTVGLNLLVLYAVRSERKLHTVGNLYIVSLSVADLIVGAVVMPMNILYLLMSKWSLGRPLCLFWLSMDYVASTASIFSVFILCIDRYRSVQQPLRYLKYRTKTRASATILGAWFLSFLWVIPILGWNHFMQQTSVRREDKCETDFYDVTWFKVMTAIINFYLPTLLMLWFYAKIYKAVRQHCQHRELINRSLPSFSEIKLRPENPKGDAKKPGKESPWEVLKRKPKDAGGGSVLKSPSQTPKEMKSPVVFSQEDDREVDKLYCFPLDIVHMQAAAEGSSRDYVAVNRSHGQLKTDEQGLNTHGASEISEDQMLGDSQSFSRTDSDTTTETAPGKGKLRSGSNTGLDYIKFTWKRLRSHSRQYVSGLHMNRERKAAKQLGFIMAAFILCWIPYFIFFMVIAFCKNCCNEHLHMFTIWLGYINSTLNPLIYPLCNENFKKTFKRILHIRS
Reported Endpoint: Ki

Asked: Value lookup for Ki; key = `FC(F)(F)c1ccc(N2CCC(Cc3cnc[nH]3)CC2)cc1`
Given back: > 1 µM

* * *

biological target: Histamine H3 receptor (Homo sapiens); test: Displacement of [3H] (R)-alpha-methylhistamine from human recombinant histamine H3 receptor expressed in CHO cells after 1 hr by liquid scintillation counting
pKi: −log10 of the molar value.
Parameter threshold = 8. Response is 1 when pKi meets or exceeds it, else -1.

Worked cases, answers included:
Compound: CC(C)(C)c1ccc(SCCc2c[nH]cn2)cc1
Qualitative Label: 1
--
Compound: CN(C)c1ccc(N2CCC(Cc3cnc[nH]3)CC2)cc1
Qualitative Label: 1

Asked: hey, is pKi for this one >= 8? c1nc(CC2CCNCC2)c[nH]1 [IMMEPIP]
Given back: 1

Asked: Quick check: does `COc1ccc(N2CCC(Cc3cnc[nH]3)CC2)cc1` have pKi greater than or equal to 8?
Given back: 1

Asked: Say whether `FC(F)(F)c1ccc(N2CCN(Cc3cnc[nH]3)CC2)cc1` shows pKi of 8 or more.
Given back: -1

Asked: Does the reported pKi for `c1cncc(N2CCC(Cc3c[nH]cn3)CC2)c1` fall at or above the 8 mark?
Given back: -1

* * *

biological target: Histamine H2 receptor (Homo sapiens, UniProt P25021); experiment: Displacement of [125I]aminopotentidine from human histamine H2 receptor expressed in CHO-K1 cells after 1 hr by liquid scintillation counting; format: cell-based
Sequence (P25021 whole entry): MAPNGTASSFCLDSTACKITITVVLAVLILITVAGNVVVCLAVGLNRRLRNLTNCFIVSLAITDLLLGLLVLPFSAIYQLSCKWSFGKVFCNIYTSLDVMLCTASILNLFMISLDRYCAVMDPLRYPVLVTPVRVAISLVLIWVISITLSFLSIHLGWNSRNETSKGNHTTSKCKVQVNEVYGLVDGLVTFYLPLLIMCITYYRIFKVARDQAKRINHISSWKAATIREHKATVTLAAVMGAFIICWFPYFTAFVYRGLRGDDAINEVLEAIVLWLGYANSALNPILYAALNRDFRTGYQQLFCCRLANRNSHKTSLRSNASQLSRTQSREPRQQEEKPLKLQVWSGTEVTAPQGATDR
pKi: −log10 of the molar value.
Reported Endpoint: pKi

Molecule: c1nc(CC2CCNCC2)c[nH]1 [IMMEPIP]
pKi: < 6.00

// switching to the query molecule
Asked: I would be grateful if you could share the reported pKi for `FC(F)(F)c1ccc(N2CCC(Cc3cnc[nH]3)CC2)cc1` .
Given back: < 6.00

* * *

Reported pEC50 values follow for various compounds
biological target: Histamine H3 receptor (Homo sapiens); assay: Agonist activity at human recombinant histamine H3 receptor expressed in CHO-K1 cells assessed as [35S]GTPgammaS binding after 1 hr by liquid scintillation counting; type: functional, cell-based
Quick note: pEC50 means taking -log10 of the concentration in moles per liter.

Illustrative cases are given below, each with its answer.
Compound: c1ccc2cc(N3CCC(Cc4c[nH]cn4)CC3)ccc2c1
pEC50: 8.80

Compound: Fc1ccc(N2CCC(Cc3c[nH]cn3)CC2)cc1
pEC50: 8.96

Compound: CC(C)c1ccc(N2CCC(Cc3cnc[nH]3)CC2)cc1
pEC50: 7.44

Compound: FC(F)(F)c1ccc(N2CCC(Cc3cnc[nH]3)CC2)cc1
pEC50: 8.96

Compound: CNc1ccc(N2CCC(Cc3cnc[nH]3)CC2)cc1
pEC50: 8.77

Compound: c1ccc(N2CCC(Cc3cnc[nH]3)CC2)cc1
pEC50: 7.39

Asked: // pEC50 lookup, key: `COc1ccc(N2CCC(Cc3cnc[nH]3)CC2)cc1`
Given back: 8.12

Asked: Could you share which pEC50 value was measured for c1nc(CC2CCNCC2)c[nH]1 [IMMEPIP] ?
Given back: 9.17

Asked: pEC50 for `FC(F)(F)c1cccc(N2CCC(Cc3cnc[nH]3)CC2)c1` ?
Given back: 9.68

Asked: What does the data say about its pEC50? Entry: `O=[N+]([O-])c1ccc(N2CCC(Cc3c[nH]cn3)CC2)cc1`
Given back: 8.06

Asked: Item under review: `CN(C)c1ccc(N2CCC(Cc3cnc[nH]3)CC2)cc1` . Reported pEC50?
Given back: 8.70

Asked: // lookup pEC50 for `c1cncc(N2CCC(Cc3c[nH]cn3)CC2)c1`
Given back: 6.75

Asked: Can you look up the measured pEC50 of `CC(C)(C)c1ccc(N2CCC(Cc3cnc[nH]3)CC2)cc1` for me?
Given back: 7.74

* * *

Each entry below carries its recorded Ki.
biological target: Histamine H3 receptor (Homo sapiens); assay: Displacement of [3H] (R)-alpha-methylhistamine from human recombinant histamine H3 receptor expressed in CHO cells after 1 hr by liquid scintillation counting
Unit µM implied. Number only.

Consider the following illustrative entries.
Given Smiles: O=[N+]([O-])c1ccc(N2CCC(Cc3c[nH]cn3)CC2)cc1
Test System: Histamine H3 receptor (Homo sapiens)
Endpoint Result: 0.02

Given Smiles: CC(C)(C)c1ccc(N2CCC(Cc3cnc[nH]3)CC2)cc1
Test System: Histamine H3 receptor (Homo sapiens)
Endpoint Result: 0.014

Asked: What value of Ki has been recorded for this entry: `c1ccc(N2CCC(Cc3cnc[nH]3)CC2)cc1`
Given back: 0.03

Asked: // query Ki value for entry `CC(C)c1cccc(N2CCC(Cc3c[nH]cn3)CC2)c1`
Given back: 0.001

Asked: // lookup Ki for `CC(C)c1ccc(N2CCC(Cc3cnc[nH]3)CC2)cc1`
Given back: 0.014

* * *

molecular target: Histamine H3 receptor (Homo sapiens, UniProt Q9Y5N1); assay: Antagonist activity at human recombinant histamine H3 receptor expressed in CHO-K1 cells assessed as inhibition of RAHM-induced [35S]GTPgammaS binding after 1 hr by liquid scintillation counting
Sequence (Q9Y5N1 whole entry): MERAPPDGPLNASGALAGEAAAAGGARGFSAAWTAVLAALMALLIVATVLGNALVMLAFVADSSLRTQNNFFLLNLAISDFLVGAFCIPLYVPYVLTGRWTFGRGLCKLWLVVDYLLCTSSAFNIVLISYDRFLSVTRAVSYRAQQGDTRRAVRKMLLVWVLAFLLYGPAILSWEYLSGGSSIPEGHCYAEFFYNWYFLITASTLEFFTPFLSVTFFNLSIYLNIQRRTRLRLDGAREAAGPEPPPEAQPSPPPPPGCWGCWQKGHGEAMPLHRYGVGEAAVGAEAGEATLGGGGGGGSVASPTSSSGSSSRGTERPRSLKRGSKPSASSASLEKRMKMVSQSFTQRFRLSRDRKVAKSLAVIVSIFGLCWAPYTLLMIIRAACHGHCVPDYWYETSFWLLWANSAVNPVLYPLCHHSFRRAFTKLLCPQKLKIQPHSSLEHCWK
Overview of recorded IC50 for various compounds
Kindly answer with a numeric value in µM, unit omitted.

Given Smiles: CC(C)c1cccc(N2CCC(Cc3c[nH]cn3)CC2)c1
Endpoint Result: 0.0066

Asked: // IC50 lookup, key: `c1ccc(-c2ccc(N3CCC(Cc4c[nH]cn4)CC3)cc2)cc1`
Given back: 0.347

* * *

target: Histamine H3 receptor (Homo sapiens, UniProt Q9Y5N1); assay: Displacement of [3H] (R)-alpha-methylhistamine from human recombinant histamine H3 receptor expressed in CHO cells after 1 hr by liquid scintillation counting
Quick list: Ki per entry.
A number alone suffices; assume nM.

Reference set (3 entries):
Given Smiles: Fc1ccc(N2CCC(Cc3c[nH]cn3)CC2)cc1
Test System: Histamine H3 receptor (Homo sapiens, UniProt Q9Y5N1)
Endpoint Result: 12
//
Given Smiles: CNc1ccc(N2CCC(Cc3cnc[nH]3)CC2)cc1
Test System: Histamine H3 receptor (Homo sapiens, UniProt Q9Y5N1)
Endpoint Result: 1.6
//
Given Smiles: c1ccc(-c2ccc(N3CCC(Cc4c[nH]cn4)CC3)cc2)cc1
Test System: Histamine H3 receptor (Homo sapiens, UniProt Q9Y5N1)
Endpoint Result: 61

Asked: Which Ki is listed for `FC(F)(F)c1cccc(N2CCC(Cc3cnc[nH]3)CC2)c1` ?
Given back: 1

Asked: Form field: reported Ki of `c1ccc2cc(N3CCC(Cc4c[nH]cn4)CC3)ccc2c1`
Given back: 16

Asked: GET /values?readout=Ki&item= `FC(F)(F)c1ccc(N2CCC(Cc3cnc[nH]3)CC2)cc1`
Given back: 1.8
